Target: CDK2/Cyclin E (Homo sapiens)
Construct: made in house; host or cells: Sf9 insect cells (baculovirus)
Assay: CDK2/Cyclin E kinase inhibition, [γ-33P]ATP, histone H1
Type: biochemical
Conditions: Table 4; read-out: CDK2/E inhibition IC50
TEST_READOUT: IC50 (nM)

• CC(C)c1[nH]nc2c(NCc3ccc(-n4cccn4)cc3)nc(SCCO)nc12 = 3

P = CC(O)CSc1nc(NCc2ccc(-n3cccn3)cc2)c2n[nH]c(C(C)C)c2n1 (stereo not drawn)
Q = CC(C)c1n[nH]c2c(NCc3ccc(-c4cnccn4)cc3)nc(SCCN)nc12
[in] Which entry has a larger number for IC50, P or Q ? Please respond with the label that marks your chosen entry.
[out] P

====

Test system: HT (diffuse large B-cell lymphoma, subtype—germinal center B-cell)
TEST_READOUT: GI50 (nM)
Enter your answer as a number in nM; do not include the unit.

Example entries and their recorded answers appear below.
• CC(C)c1n[nH]c2c(NCc3ccc(-c4ccccn4)cc3)nc(SCCn3ccnc3)nc12 [Compound 4.26] = 155
• CC(O)CSc1nc(NCc2ccc(-c3ccccn3)cc2)c2[nH]nc(C(C)C)c2n1 (stereo not shown) [Compound 4.3] = 62
• CC(C)c1n[nH]c2c(NCc3ccc(-c4ccccn4)cc3)nc(SCCNC(N)=O)nc12 [Compound 4.11] = 240

Then there is this molecule:
[in] For HT (diffuse large B-cell lymphoma, subtype—germinal center B-cell), provide GI50 of CC(C)c1n[nH]c2c(NCc3ccc(-c4ccccn4)cc3)nc(SCC(C)(C)N)nc12 [Compound 4.13] please.
[out] 85
